# assayedTarget: Quinolone resistance protein NorA (Staphylococcus aureus) (UniProt P0A0J7)
# assayRemarks: Inhibition of NorA in fluoroquinolone-resistant Staphylococcus aureus 1199B assessed as minimum modulatory concentration require to potentiate 4 ug/ml ciprofloxacin-induced antibacterial activity

| smilesStr | MMC / µg/mL |
| --- | --- |
| OB(O)c1ccc(OCc2ccc(F)cc2)nc1 | 2 |
| OB(O)c1ccc(OCc2ccccc2)nc1 | 1 |
| OB(O)c1ccc(Oc2ccccc2)nc1 | 2 |
| CCCOc1ccc(B(O)O)cn1 | 4 |
| OB(O)c1ccc(OCCCCc2ccccc2)nc1 | 0.25 |
| COc1cc(COc2ccc(B(O)O)cn2)cc(OC)c1OC | 8 |
| OB(O)c1ccc(SCc2ccccc2)nc1 | 0.5 |
